ASSAY METRIC: EC50 (µM)
Numbers only here, please. The scale is µM.

QUERY: Form field - read-out: EC50; system: Estrogen receptor beta (Homo sapiens); submitted item: O=C(O)/C=C/c1ccc2c(C(=O)c3ccc(OCCN4CCCCC4)cc3)c(-c3ccc(O)cc3)sc2c1
Sequence (Q92731 whole entry): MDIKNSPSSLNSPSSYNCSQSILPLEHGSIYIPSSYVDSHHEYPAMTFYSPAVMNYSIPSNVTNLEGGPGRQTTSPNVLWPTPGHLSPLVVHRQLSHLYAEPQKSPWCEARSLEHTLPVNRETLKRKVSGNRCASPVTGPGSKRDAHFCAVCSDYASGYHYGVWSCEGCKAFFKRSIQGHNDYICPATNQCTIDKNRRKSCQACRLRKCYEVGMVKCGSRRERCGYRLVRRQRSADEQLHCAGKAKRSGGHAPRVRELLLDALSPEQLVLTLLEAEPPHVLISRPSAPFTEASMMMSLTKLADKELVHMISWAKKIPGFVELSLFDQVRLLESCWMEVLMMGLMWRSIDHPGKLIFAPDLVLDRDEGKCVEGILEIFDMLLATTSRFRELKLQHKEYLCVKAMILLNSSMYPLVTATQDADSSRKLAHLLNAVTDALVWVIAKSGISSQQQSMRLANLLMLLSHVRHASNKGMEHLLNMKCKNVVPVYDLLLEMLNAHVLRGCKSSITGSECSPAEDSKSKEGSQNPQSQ
RESULT: 0.15

* * *

Target: Estrogen receptor beta (Homo sapiens)
ASSAY METRIC: IC50 (µM)
Numbers only here, please. The scale is µM.

QUERY: # input compound: O=C(O)/C=C/c1ccc2c(C(=O)c3ccc(OCCN4CCCCC4)cc3)c(-c3ccc(O)cc3)sc2c1 ; wanted: its IC50
RESULT: 0.104
